# protocol.text: folding enthalpy; higher = less favourable; fluorescence melt of hairpins on a sequencing array, two-state fit
# test.settings: sodium 0.088 M
parameter: folding enthalpy (kcal/mol)
Write the answer as a number in kcal/mol, unit excluded.

Measured folding enthalpy, GGCATAGCGAAAGCTGCC (((..(((....)))))) : -31.4

The measured folding enthalpy associated with GCCATCTCGAAAGAGGGC (((..(((....)))))) reads -35.2

folding enthalpy recorded for this sequence, GCACCGCGAAAGCGACGC ((..(((....)))..)) , is -15.6

Notebook: GTTCAGGGAAACCTGAGC (.(((((....))))).) , folding enthalpy read as -22.5

GET /value?item= GATCTGTTTCCAGATC ((((((....)))))) &field=folding enthalpy returns -34.9

Kindly note the recorded folding enthalpy for GTCAGCGGAAACGCCAAC ((..(((....)))..)) , which is -7.36

// field: folding enthalpy; key: GATCGAGCCGTCGATC ((((((....)))))) ; value = -34.8

Recorded folding enthalpy (sequence GATAAAACGAAAGTTATC (((..(((....)))))) ): -9.65

# folding enthalpy of GATCCATCTATGGATC ((((((....)))))) = -39.3

Entry under test: GGAGGCGGAAACGCCCCC ((.((((....)))).)) . Its folding enthalpy was -14.8

// folding enthalpy value for GCCATTGGAAACAATGAC (.(((((....))))).) : -19.1

// recorded folding enthalpy for GTGCCGGGAAACCGACAC (((.(((....))).))) : -33.5
